test system: PC-3 prostate; assay: NCI-60 one-dose screen, 48 h; conditions: 10 µM unless noted
This is part of a sample that, as a whole, favours compounds with a hit. Of some 83,000 tested, about 20% had one in any assay. Calls of active or inactive are those of the source. How the source made its calls: active means growth percent below 10; inactive means the rest.
Log the outcome using a class from yes for active, no for inactive

Ask | Hi, sorry to bother you, what did the test record for `c1ccc(OCc2nnc(-c3ccc(Oc4ccccc4)cc3)o2)cc1` ?
Reply | no

Ask | Hi, sorry to bother you, what did the test record for `COc1ccc(C(=O)n2nc(-c3ccccc3)nc2N)cc1OC` ?
Reply | no

Ask | Hi, sorry to bother you, what did the test record for `c1ccc2cc(C[n+]3ccn(CCCCCCn4cc[n+](Cc5ccc6ccccc6c5)c4)c3)ccc2c1` ?
Reply | no

Ask | Hi, sorry to bother you, what did the test record for `CC(C)c1cc(C(C)C)c(S(=O)(=O)Oc2ccc(NC(=O)c3ccc(Cl)cc3)cc2)c(C(C)C)c1` ?
Reply | no

Ask | Hi, sorry to bother you, what did the test record for `O=C(/C=C/c1sc(Cl)nc1Cl)c1ccccc1` ?
Reply | no

Ask | Hi, sorry to bother you, what did the test record for `CCCCCCCCCCCCCCCCCCOc1ccccc1CC(=O)OCC[N+](CC)(CC)CC` ?
Reply | no

Ask | Hi, sorry to bother you, what did the test record for `COc1ccc(OC)c(/C=C/C(=O)N/N=C/c2ccccc2)c1` ?
Reply | no

Ask | Hi, sorry to bother you, what did the test record for N#CC1=C(N)Oc2c(sc3c(Br)cccc23)C1c1ccc([N+](=O)[O-])cc1 (stereo not given) ?
Reply | no

Ask | Hi, sorry to bother you, what did the test record for `CC(C)C(=O)Nc1ccc(-c2nc(-c3cccc(OCCN4CCOCC4)c3)c(-c3ccnc(Br)c3)[nH]2)cc1` ?
Reply | no

Ask | Hi, sorry to bother you, what did the test record for `NCCCNc1nc2ccccc2c2c(=O)c3cc(C(F)(F)F)ccc3sc12` ?
Reply | no

Ask | Hi, sorry to bother you, what did the test record for `Cc1cc(C)c(-c2c(N)cc(Br)cc2Br)c(N)c1` ?
Reply | no

Ask | Hi, sorry to bother you, what did the test record for CCCCCCCCCCCCCCCCCC1OCC(COC(=O)O[C@]2(CC)C(=O)OCc3c2cc2n(c3=O)Cc3cc4ccccc4nc3-2)O1 (stereo not given in full) ?
Reply | no

Ask | Hi, sorry to bother you, what did the test record for `NS(=O)(=O)c1ccc(N=Nc2ccc(-c3nn4cc(-c5ccccc5)nc4s3)cc2)cc1` ?
Reply | no

Ask | Hi, sorry to bother you, what did the test record for `c1ccc(-c2nc3nonc3nc2-c2ccccc2)cc1` ?
Reply | no

Ask | Hi, sorry to bother you, what did the test record for `Nc1cc2c(cc1Br)-c1cc(Cl)ccc1C2=O` ?
Reply | no

Ask | Hi, sorry to bother you, what did the test record for `CCOC(=O)/C(C#N)=C\Nc1ccc2ncnc(Nc3ccc(Cl)cc3Cl)c2c1` ?
Reply | no

Ask | Hi, sorry to bother you, what did the test record for `C#C[C@]1(O)CC[C@H]2[C@@H]3CC=C4c5sc(Nc6ccccc6)nc5CC[C@]4(C)[C@H]3CC[C@@]21C` ?
Reply | no

Ask | Hi, sorry to bother you, what did the test record for CC1Cc2c(ncn3c(-c4ccc(F)cc4)nnc23)N(C)c2ccccc21 (stereo not given) ?
Reply | no

Ask | Hi, sorry to bother you, what did the test record for `CN1CCN(c2ccc(-c3ccc4ncc(C#N)c(Nc5ccc(F)c(Cl)c5)c4c3)cn2)CC1` ?
Reply | no

Ask | Hi, sorry to bother you, what did the test record for `O=[N+]([O-])c1ccccc1NCSc1ccc(Cl)cc1` ?
Reply | no

Ask | Hi, sorry to bother you, what did the test record for O=C1NC(=O)C(Cn2cnc3ccccc32)N1 (stereo not given) ?
Reply | no

Ask | Hi, sorry to bother you, what did the test record for `COc1ccc2sc3c(NCCO)nc4ccccc4c3c(=O)c2c1` ?
Reply | no

Ask | Hi, sorry to bother you, what did the test record for `CCOC(=O)NCCc1ccccc1` ?
Reply | no

Ask | Hi, sorry to bother you, what did the test record for `CN(C)CCS(=O)(=O)Nc1cc(-c2ccc3ncc(C#N)c(Nc4ccc(F)c(Cl)c4)c3c2)cnc1Cl` ?
Reply | yes

Ask | Hi, sorry to bother you, what did the test record for `COc1ccc(-c2cc(-c3ccc(Cl)cc3)c(C#N)c(=O)n2CCCCCC(=O)Nc2ccccc2N)cc1` ?
Reply | no

Ask | Hi, sorry to bother you, what did the test record for CC(=O)OC[C@H]1OC(Sc2sc(C(=O)c3ccc(Cl)cc3)c(N)c2-c2nc3ccccc3s2)[C@H](OC(C)=O)[C@@H](OC(C)=O)[C@@H]1OC(C)=O (stereo not given in full) ?
Reply | no

Ask | Hi, sorry to bother you, what did the test record for `COC(=O)[C@H](C)NC(=O)NC(=O)NC(=O)CI` ?
Reply | no

Ask | Hi, sorry to bother you, what did the test record for O=CN1N=C(c2ccc(Nc3ccnc4cc(Cl)ccc34)cc2)CC1c1ccccc1 (stereo not given) ?
Reply | no

Ask | Hi, sorry to bother you, what did the test record for `COc1cc(C(=O)/C=C/c2ccc(OCCCCCC[P+](c3ccccc3)(c3ccccc3)c3ccccc3)cc2)cc(OC)c1OC` ?
Reply | yes

Ask | Hi, sorry to bother you, what did the test record for `N#Cc1c(Nc2cccc(Cl)c2)sc(C(=O)c2cc3cc(Cl)ccc3o2)c1N` ?
Reply | no

Ask | Hi, sorry to bother you, what did the test record for `Cc1ccc(-c2nc3c(c(-c4ccccc4)nn3-c3ccccc3)c(-c3ccc(O)cc3)c2C#N)cc1` ?
Reply | no

Ask | Hi, sorry to bother you, what did the test record for `O=c1c2cc(C(F)(F)F)ccc2sc2c(NCCCNCCO)nc3ccccc3c12` ?
Reply | no

Ask | Hi, sorry to bother you, what did the test record for `COc1ccc(C(=O)/C=C/c2sc(Cl)nc2Cl)cc1` ?
Reply | no

Ask | Hi, sorry to bother you, what did the test record for `O=S(=O)(NCCCNc1cc(-c2c(-c3cccc(O)c3)nc3sccn23)ccn1)c1cccc2ccccc12` ?
Reply | no

Ask | Hi, sorry to bother you, what did the test record for `CCCCn1c(=O)c(-c2cc(-c3ccc(Cl)cc3)nc(-c3ccc(Cl)cc3)c2)cc2ccc(Cl)cc21` ?
Reply | no

Ask | Hi, sorry to bother you, what did the test record for `CCOC(=O)c1c2c(n(-c3ccc(C#N)cc3)c1-c1ccccc1)C=CCC2` ?
Reply | no

Ask | Hi, sorry to bother you, what did the test record for `CCCCCCN(CCCCCC)c1ccc(/C=C2/SC(=O)NC2=O)c(C)c1` ?
Reply | no

Ask | Hi, sorry to bother you, what did the test record for `c1ccc(CO[C@H]2CO[C@H]3[C@@H]2OC[C@@H]3Oc2ccc(Nc3ncnc4ccsc34)cc2)cc1` ?
Reply | no

Ask | Hi, sorry to bother you, what did the test record for `CCCCCCCCCCCCCCCCCCOc1ccc(CC(=O)OCC[N+](C)(C)C)cc1` ?
Reply | no

Ask | Hi, sorry to bother you, what did the test record for `CC(C)n1cnc2c(Nc3cccc(Cl)c3)nc(N[C@H]3CCCC[C@@H]3N)nc21` ?
Reply | no
